# Test system: P-gp
# assay overview: in vitro
# settings: mouse
value kind: IC50
Include the unit right after the number.

Entry under test: O=c1[nH]nc2c3c(cccc13)N=C(CN1Cc3ccccc3C1)N2 . Its IC50 was 1.39 µM

----------
# Test system: human acute myeloid leukemia MV-4-11-luc2/AcGFP cell line
# assay overview: Cell proliferation assay, MV-4-11-luc2/AcGFP
# settings: 144 h, read-out: IC50, inhibition of cell proliferation
value kind: pIC50
Give only the number. pIC50 is defined as minus log10 of concentration in molar units.

Measured pIC50, O=c1[nH]nc2c3c(cccc13)N=C(CN1Cc3ccccc3C1)N2 : 5.96

Numbers sourced from patent US20240325396A1.
